test: inhibitors of hydroxyurea-induced Chk1 phosphorylation, primary screen, imaging, HeLa, phospho-Chk1 nuclear intensity (AID 1187); further: test concentration not given here
condition.notes: hydroxyurea-induced phospho-Chk1 immunofluorescence imaging, higher = more signal
# binarize z-score: threshold -0.5 inclusive, high side true, low side false

// known answers, use as guide
[N-]=[N+]=NCc1ccccc1C[C@]1(C(=O)NCCN2CCOCC2)N=C(c2ccc(OCCCO)cc2)O[C@H]1c1ccccc1N=[N+]=[N-] :: true
COc1ccc([Si](C)(C)[C@@H]2[C@@H](CCn3cc([C@H](O)c4ccccc4)nn3)O[C@]3(C(=O)N(Cc4ccc(N5C(=O)c6cccc7cccc5c67)cc4)c4ccccc43)[C@H]2C)cc1 :: false
COCCCNC(=O)[C@@]1(c2ccc([N+](=O)[O-])cc2)CC(=O)N(CC23CC4CC(CC(C4)C2)C3)[C@@H]1c1ccc(CO)cc1 :: true
C=CCNC(=O)[C@H]1[C@@H]2C(=O)O[C@@H](c3ccccc3)[C@@H](c3ccccc3)N2[C@@H](c2ccc(O)cc2)[C@]12C(=O)N(C(=O)OCCOC)c1ccc(C#CCCO)cc12 :: false
C=CCNC(=O)[C@@H]1[C@H]2C(=O)O[C@H](c3ccccc3)[C@H](c3ccccc3)N2[C@H](c2ccccc2OCCO)[C@@]12C(=O)Nc1ccc(C#CC3=CCCCC3)cc12 :: true

Attention now turns to another entry.
API: above_or_equal(metric=z-score, cutoff=-0.5) for item `COCCCNC(=O)[C@@]1(C)c2ccccc2C(=O)N(Cc2cc(C(F)(F)F)cc(C(F)(F)F)c2)[C@H]1c1ccc(CO)cc1` true
